ASSAY PROCEDURE: TLC precursor-binding assay with C55-P
Design: key: “+” indicates binding confirmed; “-” indicates no binding; “~” indicates potential binding with absence of precursor band
EXPERIMENTAL CONTEXT: peptide 0.5, 1, 2 equiv. with C55-P in Tris·HCl pH 7.5, 50 mM CaCl2, 1 h; silica TLC
Numbered stars: 1 amine (or outer) side, 2 acyl side, 3 side chain; on linkers, the order of the positions; unused ones are H or OH. Bridge positions count the residues as written; N and C are the ends. Square brackets hold non-standard residues; d marks the D form. Peptide text beside a SMILES is read from it. * marks the point of attachment. β2hAla(R) = C[C@H](CN[*:1])C(=O)[*:2]; Decanoyl = CCCCCCCCCC(=O)*; Sar = CNCC(=O)O

- COMPOUND: "CCCCCCCCCC(=O)NC[C@@H](C)C(=O)NCC(=O)N[C@H](CCC(=O)O)C(=O)N[C@@H](Cc1ccc(O)cc1)C(=O)N[C@@H]1C(=O)N[C@H]([C@H](C)CC)C(=O)N[C@@H](CC(=O)O)C(=O)N[C@@H](CC(=O)O)C(=O)N2CCC[C@H]2C(=O)NCC(=O)N[C@H](CCC(=O)O)C(=O)N[C@@H](CCC(=O)O)C(=O)N(C)CC(=O)O[C@@H]1C [Peptide C1b] (Decanoyl-[β2hAla(R)]G[dE]YT[dI]DDPG[dE]E[Sar]; ester 5-C)"
  C55-P (TLC binding): "~"
- COMPOUND: "CCCCCCCCCC(=O)NC[C@@H](C)C(=O)NCC(=O)N[C@H](CCC(=O)O)C(=O)N[C@@H](Cc1ccc(O)cc1)C(=O)N[C@@H]1C(=O)N[C@H]([C@H](C)CC)C(=O)N[C@@H](CC(=O)O)C(=O)N[C@@H](CC(=O)O)C(=O)N2CCC[C@H]2C(=O)NCC(=O)N[C@H](CC(=O)O)C(=O)N[C@@H](CC(=O)O)C(=O)N(C)CC(=O)O[C@@H]1C [Peptide C3] (Decanoyl-[β2hAla(R)]G[dE]YT[dI]DDPG[dD]D[Sar]; ester 5-C)"
  C55-P (TLC binding): "~"
- COMPOUND: "CCCCCCCCCC(=O)NC[C@@H](C)C(=O)NCC(=O)N[C@H](CCC(=O)O)C(=O)N[C@@H](Cc1ccc(O)cc1)C(=O)N[C@@H]1C(=O)N[C@H]([C@H](C)CC)C(=O)N[C@@H](CC(=O)O)C(=O)N[C@@H](CC(=O)O)C(=O)N2CCC[C@H]2C(=O)NCC(=O)N[C@@H](CCC(=O)O)C(=O)N[C@@H](CC(=O)O)C(=O)N(C)CC(=O)O[C@@H]1C [Peptide C8] (Decanoyl-[β2hAla(R)]G[dE]YT[dI]DDPGED[Sar]; ester 5-C)"
  C55-P (TLC binding): "-"
- COMPOUND: "CCCCCCCCCC(=O)NC[C@@H](C)C(=O)NCC(=O)N[C@H](CCC(=O)O)C(=O)N[C@@H](Cc1ccc(O)cc1)C(=O)N[C@@H]1C(=O)N[C@H]([C@H](C)CC)C(=O)N[C@@H](CC(=O)O)C(=O)N[C@@H](CC(=O)O)C(=O)N2CCC[C@H]2C(=O)NCC(=O)N[C@@H](CCC(=O)O)C(=O)N[C@@H](CCC(=O)O)C(=O)N(C)CC(=O)O[C@@H]1C [Peptide C2a] (Decanoyl-[β2hAla(R)]G[dE]YT[dI]DDPGEE[Sar]; ester 5-C)"
  C55-P (TLC binding): "~"
